For each entry below, report its EC50 value.
experimentalSystem: T1, human c-Met on cells (NCI-H441, NCI-H292, U87-MG) (human, UniProt P08581 25-1390)
T1 construct: Endogenous c-Met of human tumor cell lines; also called hepatocyte growth factor receptor
T1 sequence (P08581 other isoform, or with tags, fused parts or gaps limits assumed): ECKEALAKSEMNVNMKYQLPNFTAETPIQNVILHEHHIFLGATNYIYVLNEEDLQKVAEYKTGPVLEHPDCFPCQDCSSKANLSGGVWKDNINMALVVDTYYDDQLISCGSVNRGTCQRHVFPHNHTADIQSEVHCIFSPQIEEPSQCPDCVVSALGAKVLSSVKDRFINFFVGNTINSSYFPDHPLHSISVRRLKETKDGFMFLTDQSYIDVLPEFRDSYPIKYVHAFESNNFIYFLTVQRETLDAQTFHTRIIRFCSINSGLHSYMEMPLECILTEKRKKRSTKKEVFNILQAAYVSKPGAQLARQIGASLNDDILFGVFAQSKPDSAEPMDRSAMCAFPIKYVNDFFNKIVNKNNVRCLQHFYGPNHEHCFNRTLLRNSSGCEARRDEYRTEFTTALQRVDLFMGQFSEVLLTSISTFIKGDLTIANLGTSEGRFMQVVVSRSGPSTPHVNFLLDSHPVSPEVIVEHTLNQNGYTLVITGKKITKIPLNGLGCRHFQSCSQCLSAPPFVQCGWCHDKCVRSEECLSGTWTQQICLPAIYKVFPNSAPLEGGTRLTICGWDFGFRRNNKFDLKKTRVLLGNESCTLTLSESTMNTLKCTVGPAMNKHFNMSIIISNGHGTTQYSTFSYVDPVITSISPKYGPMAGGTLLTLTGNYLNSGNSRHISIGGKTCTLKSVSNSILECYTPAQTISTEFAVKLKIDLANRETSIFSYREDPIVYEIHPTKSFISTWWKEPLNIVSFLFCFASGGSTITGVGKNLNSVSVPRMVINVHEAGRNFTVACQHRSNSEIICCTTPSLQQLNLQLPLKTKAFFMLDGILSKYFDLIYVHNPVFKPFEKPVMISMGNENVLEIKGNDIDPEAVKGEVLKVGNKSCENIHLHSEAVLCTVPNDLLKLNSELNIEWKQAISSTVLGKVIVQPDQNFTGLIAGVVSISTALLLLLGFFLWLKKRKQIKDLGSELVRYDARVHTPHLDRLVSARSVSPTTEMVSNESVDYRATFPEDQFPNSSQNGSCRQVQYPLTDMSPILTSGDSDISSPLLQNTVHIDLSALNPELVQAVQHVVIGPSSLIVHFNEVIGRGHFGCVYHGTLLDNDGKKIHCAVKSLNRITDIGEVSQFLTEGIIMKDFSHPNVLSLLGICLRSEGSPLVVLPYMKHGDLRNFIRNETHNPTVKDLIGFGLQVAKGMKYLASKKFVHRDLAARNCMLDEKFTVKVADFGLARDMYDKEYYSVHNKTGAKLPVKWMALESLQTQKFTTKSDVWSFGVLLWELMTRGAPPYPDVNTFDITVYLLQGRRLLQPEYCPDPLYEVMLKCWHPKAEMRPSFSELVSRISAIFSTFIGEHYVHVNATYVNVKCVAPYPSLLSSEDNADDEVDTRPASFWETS
experiment: NCI-H441 cell binding, anti-His fluorescence
Answers are plain numbers, in nM.

binder	quantity	numericResult
P114AR7P95-D4 (designed binder, not shown: small tags and cut ends) LPAPKNLVVSRVTEDSARLSWTAPDAAFDSFWIRYFEFLGSGEAIVLTVPGSERSYDLTGLKPGTEYVVQILGVKGGYISIPLSAIFTT	EC50	1.4
P114AR7P95-E3 (designed binder, not shown: small tags and cut ends) LPAPKNLVVSRVTEDSARLSWTAPDAAFDSFWIRYFEFLGSGEAIVLTVPGSERSYDLTGLKPGTEYVVQIMGVKGGTVSPPLSAIFTT	EC50	3.2
P114AR7P95-F10 (designed binder, not shown: small tags and cut ends) LPAPKNLVVSRVTEDSARLSWTAPDAAFDSFWIRYFEFTTAGEAIVLTVPGSERSYDLTGLKPGTEYVVNIMGVKGGSISPPLSAIFTT	EC50	4.4
P114AR7P93-H9 (designed binder, not shown: small tags and cut ends) LPAPKNLVVSRVTEDSARLSWTAPDAAFDSFWIRYFEFLGSGEAIVLTVPGSERSYDLTGLKPGTEYVVQIIGVKGGHISLPLSAIFTT	EC50	12.9

# input May I ask what EC50 has been recorded for P114AR5P74-A5 (designed binder, not shown: small tags and cut ends) LPAPKNLVVSRVTEDSARLSWTAPDAAFDSFWIRYDEVVVGGEAIVLTVPGSERSYDLTGLKPGTEYYVNILGVKGGSISVPLSAIFTT ?
# output 18.7

The measurements presented in this section are drawn from patent US20210301025A1.
